# target: human type 1 glycine transporter (GlyT1) (Homo sapiens, UniProt P48067)
# Construct: T98G cells (glioma cells) expressing human type 1 glycine transporter (GlyT1) were used; endogenous in cells; host or cells: T98G cells (human glioma cells)
# Sequence (P48067 1-706): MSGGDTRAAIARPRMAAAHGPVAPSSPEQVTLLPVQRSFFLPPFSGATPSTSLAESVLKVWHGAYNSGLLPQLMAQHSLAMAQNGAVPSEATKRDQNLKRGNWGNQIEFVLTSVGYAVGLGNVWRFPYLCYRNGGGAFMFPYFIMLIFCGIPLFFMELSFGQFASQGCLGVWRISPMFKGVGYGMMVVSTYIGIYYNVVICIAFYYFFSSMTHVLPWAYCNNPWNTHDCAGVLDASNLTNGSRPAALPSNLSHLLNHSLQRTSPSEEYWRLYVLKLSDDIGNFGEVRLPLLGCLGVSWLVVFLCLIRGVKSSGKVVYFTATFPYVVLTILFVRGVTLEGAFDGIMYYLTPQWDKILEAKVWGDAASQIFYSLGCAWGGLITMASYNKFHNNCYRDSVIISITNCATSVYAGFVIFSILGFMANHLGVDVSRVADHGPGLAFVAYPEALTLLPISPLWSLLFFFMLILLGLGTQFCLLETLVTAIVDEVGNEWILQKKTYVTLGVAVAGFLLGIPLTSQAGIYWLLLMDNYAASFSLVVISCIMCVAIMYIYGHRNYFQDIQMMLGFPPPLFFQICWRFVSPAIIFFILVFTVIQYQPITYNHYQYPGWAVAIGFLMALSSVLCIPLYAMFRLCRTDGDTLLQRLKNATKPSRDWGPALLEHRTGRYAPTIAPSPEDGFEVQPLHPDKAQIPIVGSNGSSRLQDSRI
# protocol: Glycine uptake inhibition experiment ([3H] glycine uptake in T98G cells expressing GlyT1)
# Format: cell-based
# test.settings: glycine uptake inhibition
pIC50: −log10 of the molar value.
pIC50 by entry:

compound | target | pIC50
C[C@H](O)c1cccc2c1C(F)(F)C(=O)N2Cc1ccc(C(F)(F)F)nc1 | human type 1 glycine transporter (GlyT1) (Homo sapiens, UniProt P48067) | 7.57
COc1cc(CN2C(=O)C(F)(F)c3c([C@H](C)O)cccc32)ccn1 | human type 1 glycine transporter (GlyT1) (Homo sapiens, UniProt P48067) | 7.92
C[C@H](O)c1c(Cl)ccc2c1C(F)(F)C(=O)N2Cc1cncc(Cl)c1 | human type 1 glycine transporter (GlyT1) (Homo sapiens, UniProt P48067) | 7.34
COc1ccnc(CN2C(=O)C(F)(F)c3c([C@H](C)O)cccc32)c1 | human type 1 glycine transporter (GlyT1) (Homo sapiens, UniProt P48067) | 6.89
O=C1N(Cc2cccc(Cl)n2)c2cccc(CO)c2C1(F)F | human type 1 glycine transporter (GlyT1) (Homo sapiens, UniProt P48067) | 6.85
C[C@H](O)c1cccc2c1C(F)(F)C(=O)N2Cc1cncc(F)c1 | human type 1 glycine transporter (GlyT1) (Homo sapiens, UniProt P48067) | 7.12
Cn1c(CN2C(=O)C(F)(F)c3c([C@@H](O)C(F)(F)F)cccc32)cc2ccccc2c1=O | human type 1 glycine transporter (GlyT1) (Homo sapiens, UniProt P48067) | 6.89
O=C1N(Cc2ccc(F)nc2)c2cccc(C(O)C(F)F)c2C1(F)F (single isomer, unassigned) | human type 1 glycine transporter (GlyT1) (Homo sapiens, UniProt P48067) | 6.96
CC(O)c1cccc2c1C(F)(F)C(=O)N2Cc1cccc(Cl)n1 (stereo not shown) [Compound 1] | human type 1 glycine transporter (GlyT1) (Homo sapiens, UniProt P48067) | 7.82
C[C@H](O)c1cccc2c1C(F)(F)C(=O)N2Cc1ccc(C(F)(F)F)cn1 | human type 1 glycine transporter (GlyT1) (Homo sapiens, UniProt P48067) | 7.54
C[C@H](O)c1cccc2c1C(F)(F)C(=O)N2Cc1cncc(-n2nccn2)c1 | human type 1 glycine transporter (GlyT1) (Homo sapiens, UniProt P48067) | 7.46
O=C1N(Cc2cccc(Cl)n2)c2cccc(C3(O)CC3)c2C1(F)F | human type 1 glycine transporter (GlyT1) (Homo sapiens, UniProt P48067) | 5.82
N#Cc1cc(CN2C(=O)C(F)(F)c3c(C(O)C(F)(F)F)cccc32)ccn1 (stereo not shown) [Compound 14] | human type 1 glycine transporter (GlyT1) (Homo sapiens, UniProt P48067) | 6.92

* * *

IC50 by entry:
# target: human type 1 glycine transporter (GlyT1) (Homo sapiens, UniProt P48067)
# Construct: T98G cells (glioma cells) expressing human type 1 glycine transporter (GlyT1) were used; endogenous in cells; host or cells: T98G cells (human glioma cells)
# Sequence (P48067 1-706): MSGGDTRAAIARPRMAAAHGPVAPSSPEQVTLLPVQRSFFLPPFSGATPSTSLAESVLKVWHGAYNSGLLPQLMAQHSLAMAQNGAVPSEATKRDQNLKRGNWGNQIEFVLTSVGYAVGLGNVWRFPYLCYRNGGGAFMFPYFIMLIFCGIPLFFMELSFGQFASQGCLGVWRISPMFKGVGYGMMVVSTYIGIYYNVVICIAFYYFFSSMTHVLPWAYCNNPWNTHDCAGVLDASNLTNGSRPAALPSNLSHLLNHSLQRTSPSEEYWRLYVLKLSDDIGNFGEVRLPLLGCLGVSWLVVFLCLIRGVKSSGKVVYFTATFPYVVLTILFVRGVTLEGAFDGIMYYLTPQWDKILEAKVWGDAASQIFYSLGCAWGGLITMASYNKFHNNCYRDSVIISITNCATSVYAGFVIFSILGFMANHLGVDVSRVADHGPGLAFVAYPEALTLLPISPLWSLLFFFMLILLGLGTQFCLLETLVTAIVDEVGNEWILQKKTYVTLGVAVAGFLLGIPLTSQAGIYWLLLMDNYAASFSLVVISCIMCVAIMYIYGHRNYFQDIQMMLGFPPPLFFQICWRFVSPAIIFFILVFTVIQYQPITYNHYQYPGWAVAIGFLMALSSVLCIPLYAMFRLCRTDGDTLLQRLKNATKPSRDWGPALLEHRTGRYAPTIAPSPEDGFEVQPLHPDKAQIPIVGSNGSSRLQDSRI
# protocol: Glycine uptake inhibition experiment ([3H] glycine uptake in T98G cells expressing GlyT1)
# Format: cell-based
# test.settings: glycine uptake inhibition
assay.readout: IC50 (µM)

molecule | reported.result
O=C1N(Cc2cccc(Cl)n2)c2cccc(C(O)CF)c2C1(F)F (centres unmarked) | 0.017
C[C@H](O)c1cccc2c1C(F)(F)C(=O)N2Cc1cccc(F)c1 | 0.0091
C[C@H](O)c1cccc2c1C(F)(F)C(=O)N2Cc1ccc2nonc2c1 | 0.0087
O=C1N(Cc2cncc(Cl)c2)c2ccc(F)c(C(O)C(F)(F)F)c2C1(F)F (centres unmarked) [Compound 48] | 0.085
C[C@H](O)c1cccc2c1C(F)(F)C(=O)N2Cc1nc2ccccc2c(=O)n1C | 0.029

* * *

IC50 by entry:
# target: human type 1 glycine transporter (GlyT1) (Homo sapiens, UniProt P48067)
# Construct: T98G cells (glioma cells) expressing human type 1 glycine transporter (GlyT1) were used; endogenous in cells; host or cells: T98G cells (human glioma cells)
# protocol: Glycine uptake inhibition experiment ([3H] glycine uptake in T98G cells expressing GlyT1)
# Type: cell-based
# test.settings: table section whose head prints (μm)
assay.readout: IC50

compound | assay.readout | reported.result
O=C1N(Cc2cccc(C(F)(F)F)n2)c2cccc(C(O)C(F)F)c2C1(F)F (single isomer, unassigned) | IC50 | 110 nM
N#Cc1cc(CN2C(=O)C(F)(F)c3c(C(O)C(F)F)cccc32)cc(Cl)n1 (single isomer, unassigned) | IC50 | 170 nM
N#Cc1cc(CN2C(=O)C(F)(F)c3c(C(O)C(F)F)cccc32)cnc1F (single isomer, unassigned) | IC50 | 27 nM
O=C1N(Cc2cncc(OC(F)F)c2)c2cccc(C(O)C(F)F)c2C1(F)F (single isomer, unassigned) | IC50 | 120 nM
N#Cc1nc(CN2C(=O)C(F)(F)c3c(C(O)C(F)F)cccc32)ccc1Cl (single isomer, unassigned) | IC50 | 5.5 nM
N#Cc1nc(CN2C(=O)C(F)(F)c3c(C(O)C(F)F)cccc32)ccc1C(F)(F)F (single isomer, unassigned) | IC50 | 8.4 nM
O=C1N(Cc2ccc(F)c(Cl)n2)c2cccc(C(O)C(F)F)c2C1(F)F (single isomer, unassigned) | IC50 | 11 nM
O=C1N(Cc2cc(C(F)(F)F)c(Cl)cn2)c2cccc(C(O)C(F)F)c2C1(F)F (single isomer, unassigned) | IC50 | 16 nM
COc1cc(CN2C(=O)C(F)(F)c3c([C@H](C)O)cccc32)ncc1F | IC50 | 250 nM
C[C@H](O)c1cccc2c1C(F)(F)C(=O)N2Cc1cc(C#N)c(F)cn1 | IC50 | 62 nM
COc1nc(CN2C(=O)C(F)(F)c3c(C(O)C(F)F)cccc32)ccc1F (single isomer, unassigned) | IC50 | 930 nM
O=C1N(Cc2cnc(Cl)cc2Cl)c2cccc(C(O)C(F)F)c2C1(F)F (single isomer, unassigned) | IC50 | 330 nM
